These measurements were taken from PubChem BioAssay (NCATS).

Assay: Quantitative High-Throughput drug screen in 47 multiple myeloma cell lines against the NCATS MIPE library collection: H1112_PLB cell viability assay (AID 1918967; further: nearly all actives have a fitted effect of over 30% in size)
Settings: H1112 myeloma cells viability, ATP luminescence, 48 h; series mostly up to 45.8 µM
Inconclusive results are not listed. Activity calls are given as the source filed them. The call rests on the fitted dose curve; in most records, active means well fitted cell-killing curve with a large enough effect; inconclusive means small, poorly fitted or top-dose-only effect, or effect the other way; inactive means no such curve, though single readings can be large or run the other way.
Labels: active, inactive

1) CC1(C)SCCN(S(=O)(=O)c2ccc(OCC#CCO)cc2)[C@@H]1C(=O)NO :: inactive
2) CNC(=O)c1ccc(C)c(-n2c(C)cc(OCc3ccc(F)cc3F)c(Br)c2=O)c1 :: active
3) OCCC#Cc1nc(-c2ccc(F)cc2)c(-c2ccncc2)n1CCCc1ccccc1 :: active
4) Oc1cccc(-c2nc(N3CCOCC3)c3oc4ncccc4c3n2)c1 :: active
5) COc1ccc([C@@H]2CC(=O)c3c(O)cc(O[C@@H]4O[C@H](CO[C@@H]5O[C@@H](C)[C@H](O)[C@@H](O)[C@@H]5O)[C@@H](O)[C@H](O)[C@@H]4O)cc3O2)cc1O :: inactive
6) CC(=O)Oc1ccccc1C(=O)O :: active
7) CC(C)(Sc1ccc(CCN(CCCCC2CCCCC2)C(=O)NC2CCCCC2)cc1)C(=O)O :: inactive
8) CCCc1nc2c(C)cc(-c3nc4ccccc4n3C)cc2n1Cc1ccc(-c2ccccc2C(=O)O)cc1 :: inactive
9) COc1cc(Nc2ncc3c(n2)-c2ccc(Cl)cc2C(c2c(F)cccc2OC)=NC3)ccc1C(=O)O :: inactive
10) C[C@]12CC[C@H](O)CC1=CC[C@@H]1[C@H]2CC[C@]2(C)C(c3cccnc3)=CC[C@H]12 :: inactive
11) O=C(O)CCc1ccc(NCc2cccc(Oc3ccccc3)c2)cc1 :: inactive
12) CCC(C)(C)C(=O)O[C@H]1C[C@@H](C)C=C2C=C[C@H](C)[C@H](CC[C@@H]3C[C@@H](O)CC(=O)O3)[C@H]21 :: active
13) Cn1cnc([N+](=O)[O-])c1Sc1ncnc2nc[nH]c12 :: active
14) Nc1ccc(S(=O)(=O)Nc2ccnn2-c2ccccc2)cc1 :: inactive
15) CCC(=O)N[C@H]1CC[C@H](C(=O)N(C)c2ccc(-c3nc4ccccc4o3)cc2)C1 :: active
16) CNC[C@H](O)c1cccc(O)c1 :: inactive
17) CCOC(=O)N1CCC(=C2c3ccc(Cl)cc3CCc3cccnc32)CC1 :: inactive
18) Cc1cccc(-c2nn(C(=S)Nc3ccccc3)cc2-c2ccnc3ccccc23)n1 :: active
19) CC(=O)NC(C)c1ccc(Oc2ccc(OC(C)C)cc2)cc1 (stereo unspecified) :: active
20) CCC(C)n1ncn(-c2ccc(N3CCN(c4ccc(OC[C@H]5CO[C@](Cn6cncn6)(c6ccc(Cl)cc6Cl)O5)cc4)CC3)cc2)c1=O (stereo partly specified) :: inactive
21) CS(=O)(=O)Oc1ccc2c(NC(N)=O)c(C(=O)c3ccc(Cl)cc3Cl)oc2c1 :: active
22) CC(c1cc2ccccc2s1)N(O)C(N)=O (stereo unspecified) :: inactive
23) CC(C)OC(=O)C1=CN(C(=O)c2ccc(F)c(F)c2)CC(C)(C)c2c1[nH]c1ccccc21 :: inactive
24) O=c1[nH]cnc2[nH]ncc12 :: inactive
25) Cc1c(CCOc2ccc(C(=O)O)cc2)c2cc(Cl)ccc2n1C(c1ccccc1)c1ccccc1 :: inactive
26) O=NN(CCCl)C(=O)NCCCl :: inactive
27) CCN(CC)CCCC(C)Nc1ccnc2cc(Cl)ccc12 (stereo unspecified) :: inactive
28) O=C(Nc1nc2ccccc2n1CCN1CCOCC1)c1cccc([N+](=O)[O-])c1 :: inactive
29) Clc1cccc(Cl)c1NC1=NCCN1 :: inactive
30) Cc1ccccc1C(OCCN(C)C)c1ccccc1 (stereo unspecified) :: inactive
31) CCc1cc(Nc2nccc(-c3c(-c4ccc(OC)c(C(=O)Nc5c(F)cccc5F)c4)nc4ccccn34)n2)c(OC)cc1N1CCC(N2CCN(S(C)(=O)=O)CC2)CC1 :: active
32) Cc1cc(Nc2nc(N[C@@H](C)c3ncc(F)cn3)ncc2Cl)n[nH]1 :: active
33) NC(=O)c1ccc(I)c([N+](=O)[O-])c1 :: inactive
34) CCCS(=O)(=O)Nc1ccc(F)c(C(=O)c2c[nH]c3ncc(Cl)cc23)c1F :: active
35) CCCn1c(=O)c2[nH]c(C34CC5CC3C[C@@H](C5)C4)nc2n(CCC)c1=O :: inactive
36) Cc1c(C)c2c(c(C)c1O)CCC(C)(COc1ccc(CC3SC(=O)NC3=O)cc1)O2 (stereo unspecified) :: inactive
37) O=C(NOC[C@H](O)CO)c1ccc(F)c(F)c1Nc1ccc(I)cc1F :: active
38) CNC(=O)c1ccc(N2C(=S)N(c3ccc(C#N)c(C(F)(F)F)c3)C(=O)C2(C)C)cc1F :: inactive
39) CCc1ccc(CCOc2ccc(CC3SC(=O)NC3=O)cc2)nc1 (stereo unspecified) :: inactive
40) COc1ccc2c3n(c(=NC(=O)c4cccnc4)nc2c1OC)CCN3 :: active
41) CC(C)(C)NCC(O)c1ccc(O)c(CO)c1 (stereo unspecified) :: inactive
